# Measurement description: In-vivo evaluation: phytocannabinoid serum concentrations after oral administration
# Design: species or system mice (C57BL/6 J)
# Conditions used: male, C57BL/6J, mouse, po, 5 mg CBD/kg, mice, F2 tea formulation, 90 min after dosing, average ± standard error, read-out: Serum Concentration, Experiment Group
Measured concentration at 90 min by item

{"Molecule": "C=C(C)[C@@H]1CCC(C)=C[C@H]1c1c(O)cc(CCCCC)cc1O", "Output unit": "ng/mL", "concentration at 90 min": 1500}
{"Molecule": "CCCCCc1cc(O)c2c(c1)OC(C)(CCC=C(C)C)C=C2 (stereo not shown)", "Output unit": "ng/mL", "concentration at 90 min": 210}
{"Molecule": "CCCCCc1cc(O)c2c(c1)OC(C)(C)[C@@H]1CCC(C)=C[C@@H]21 [THC, (—)-trans-Δ^9-tetrahydrocannabinol]", "Output unit": "ng/mL", "concentration at 90 min": 115}
{"Molecule": "CCCCCc1cc(O)c2c(c1)OC(C)(C)c1ccc(C)cc1-2", "Output unit": "ng/mL", "concentration at 90 min": 125}
